Entry source: ChEMBL document CHEMBL3988442

Test system: Mycobacterium tuberculosis
assay-explanation: Cornell M. t heat shock assay; note: in the data most compounds retested in dose-response had high values
Format: functional, organism-based
Design: dose or concentration left out as unconfirmed
The whole screen tested about 69,000 compounds, of which about 950 (1.4%) showed an effect of 50% or more. The sample as a whole holds a higher share of strong results than the screen did.
reported-metric: Percent Effect (%)
Give your result in % as a bare value.

compound: Cc1ccc(-c2nc(CNC(C)CCO)[nH]c2-c2ccccn2)cc1 (stereo unspecified)
Percent Effect [%]: 77
--
compound: CC(C)N(C)Cc1cnc2n1CCN(Cc1cccc(F)c1)C2.O=C(O)C(F)(F)F.O=C(O)C(F)(F)F
Percent Effect [%]: -5.438
--
compound: COCC(C)NCc1ccc2[nH]c(C)c(C)c2c1 (stereo unspecified)
Percent Effect [%]: -11.87
--
compound: O=C(Nc1cccnc1)[C@H]1C[C@@H]2CN(S(=O)(=O)C3CC3)C[C@H]1O2
Percent Effect [%]: -11.95
--
compound: Clc1ccc(Cc2nc(CNCCn3cccn3)cs2)cc1
Percent Effect [%]: 102.1
--
compound: Cc1cnccc1-c1cnn(CCNC(=O)c2ccncc2)c1C1CC1.Cl
Percent Effect [%]: -0.5476

Lab note: CCN1CCOCC12CCN(C(=O)Cc1ccccc1)CC2.O=C(O)C(F)(F)F gave Percent Effect of -16.25

For reference, reported Percent Effect for CNC(=O)[C@H]1CO[C@H]2CCN(c3ncc(F)cn3)C[C@H]2C1.O=C(O)C(F)(F)F stands at -11.38

Please fill in: Percent Effect reported for Cc1ccc(C(CCNCCCN(C)C)C2CCOC(C)(C)C2)cc1.O=C(O)C(=O)O (stereo unspecified) = -7.6

Entry c1ccc(Cc2nc(CNCCn3cccn3)cs2)cc1 , Percent Effect reported as 96.34

# Percent Effect (compound: Cc1nnc(N2CCCC3(CN(Cc4ccc(F)cc4)CCO3)C2)o1.O=C(O)C(F)(F)F (stereo unspecified) ) is -29.82

The compound identified as CCS(=O)(=O)Nc1ccc2c(c1)C1(CCOCC1)CN2C.O=C(O)C(F)(F)F registered its Percent Effect at 36

* * *

System: Mycobacterium tuberculosis
assay-explanation: Cornell M. t heat shock assay; note: in the data most compounds retested in dose-response had high values
Format: functional, organism-based
Set-up: dose or concentration left out as unconfirmed
The campaign covered roughly 69,000 compounds. About 950 (1.4%) showed an effect of 50% or more. For the sample, strong results were picked, then their nearest neighbours and some compounds at random.
reported-metric: Percent Effect (%)
A number alone suffices; assume %.

compound: N#Cc1cccc(CN2CC[C@@H]3[C@@H]2CC(=O)N3CCN2CCCC2)c1.O=C(O)C(F)(F)F.O=C(O)C(F)(F)F
Percent Effect (%): -3.152

compound: Cc1ccc(CNCc2c[nH]nc2C(C)(C)C)c(OC2CCOC2)c1 (configuration not stated)
Percent Effect (%): 18.1

compound: CN1CCN(C(=O)c2ncn3c2CN(C)S(=O)(=O)c2ccccc2-3)CC1.O=C(O)C(F)(F)F
Percent Effect (%): -21.31

compound: Cc1cc(C)c(CNC(=O)NCCNc2cnccn2)c(=O)[nH]1
Percent Effect (%): -7.276

compound: O=C(CCc1n[nH]c2c1CCCC2)N1C[C@@H]2CC[C@H](C1)N(CC1CC1)C2
Percent Effect (%): 90.59

compound: CC(=O)N1C[C@@H]2CC[C@H](C1)N(C(=O)CCc1n[nH]c3c1CCCC3)C2
Percent Effect (%): -1.596

// field: Percent Effect; key: Cc1ccc(CNCc2cccc3cn[nH]c23)c(OC2CCOC2)c1 (configuration not stated) ; value = 3.326

* * *

Let's look at some compounds and their measured Percent Effect.
System: Mycobacterium tuberculosis
assay-explanation: Cornell M. t heat shock assay; note: in the data most compounds retested in dose-response had high values
Type: functional, organism-based
Design: dose or concentration left out as unconfirmed
About 950 (1.4%) of roughly 69,000 compounds showed an effect of 50% or more. The full list was thinned out, with strong results kept by preference.
Give a bare numeral; the unit % is implied.

compound: Cc1ccc(C(=O)N2[C@@H]3CC[C@H]2CN(C)C(=O)C3)c(=O)[nH]1
Percent Effect / %: -6.73

Percent Effect reading for Cc1nn(C)cc1CN(Cc1ccccn1)Cc1ccccc1Cl : 53.11

The reported Percent Effect of the compound CCn1nc(C)c(CN(CCCN(C)C)Cc2ccccn2)c1C was -9.336

The recorded Percent Effect for Cc1nc(CN2CCCC(N(C)c3ccc(C#N)cn3)C2)no1 (stereo unspecified) is -30.96

Lookup result for Cn1cc(CN2CCCC(O)C2)c(-c2ccccc2F)n1 (stereo unspecified) ; measured Percent Effect: 14.46

Lab note: COCCNC(=O)[C@H]1CN(Cc2sccc2C)C[C@H]2OCC[C@@H]12.O=C(O)C(F)(F)F gave Percent Effect of -45.09

* * *

Consider the following compounds and their measured Percent Effect readings.
Tested on: Mycobacterium tuberculosis
assay-explanation: Cornell M. t heat shock assay; note: in the data most compounds retested in dose-response had high values
Assay type: functional, organism-based
Set-up: dose or concentration left out as unconfirmed
In all, about 69,000 compounds went through this assay and about 950 (1.4%) showed an effect of 50% or more. Only a selection was taken, and strong results are over-represented in it overall.
# value in %; strip the unit string

Please review the following examples before continuing.
compound: Cc1nc(CN2CCCCC2Cn2cccn2)nc2ccccc12 (centres undefined)
reported-metric: Percent Effect
unit-of-measure: %
measured-result: 49.4

compound: CC(C)(O)CN1CC(C)(C)CN(C(=O)CCc2ccccc2)CC1=O
reported-metric: Percent Effect
unit-of-measure: %
measured-result: 52.03

compound: COCCN1C(=O)CC(N2CCN(c3ccccc3)CC2)C1=O (centres undefined)
reported-metric: Percent Effect
unit-of-measure: %
measured-result: 12.72

Please fill in: Percent Effect reported for Cc1nc(C)n(CC2CCCN2Cc2nc3ccccc3n2C)n1 (centres undefined) = -5.876

Percent Effect for CCc1nc(NCc2ccccn2)c2c(n1)c(C)nn2C is -15.98

* * *

System: Mycobacterium tuberculosis
assay-explanation: Cornell M. t heat shock assay; note: in the data most compounds retested in dose-response had high values
Format: functional, organism-based
Set-up: dose or concentration left out as unconfirmed
The whole screen tested about 69,000 compounds, of which about 950 (1.4%) showed an effect of 50% or more. This excerpt belongs to a sample that is enriched for strong results.
reported-metric: Percent Effect

Past entries and their recorded results:
molecule: Cc1nc(CNCc2cccc(OC34CCCN(CC3)C4)c2)n[nH]1 (stereo unspecified)
Percent Effect: -9.099%
//
molecule: CC(=O)N1N=C(c2ccccc2)OC1C(=O)NCCc1cccc(F)c1 (stereo unspecified)
Percent Effect: 26%
//
molecule: COc1cc(CNC(c2ccccc2)c2nccn2C)cc(OC)c1 (stereo unspecified)
Percent Effect: 110.9%
//
molecule: COc1ccc(NC(=O)C2OC(c3cccs3)=NN2C(C)=O)cc1 (stereo unspecified)
Percent Effect: 19.1%
//
molecule: Cn1ccnc1C(NCc1csc(Br)c1)c1ccccc1 (stereo unspecified)
Percent Effect: 103.5%
//
molecule: Cc1nn(C)c2nc(-c3ccccn3)nc(NC[C@@H]3CCCO3)c12
Percent Effect: 93.55%
//
molecule: CN(C)CCN1CCCC12CCN(C(=O)c1ccoc1)CC2.O=C(O)C(F)(F)F.O=C(O)C(F)(F)F
Percent Effect: -7.317%
//
molecule: COc1ccc(NC(=O)C2OC(c3cccs3)=NN2C(C)=O)cc1OC (stereo unspecified)
Percent Effect: 54.99%

# input for lookup
According to the records, this molecule CN(C)[C@@H]1CCN(C(=O)c2cccc(C#N)c2)[C@H]1Cc1cnn(C)c1.O=C(O)C(F)(F)F displays Percent Effect of 5.533%

* * *

Here the recorded Percent Effect is given for each entry.
Test system: Mycobacterium tuberculosis
assay-explanation: Cornell M. t heat shock assay; note: in the data most compounds retested in dose-response had high values
Type: functional, organism-based
Set-up: dose or concentration left out as unconfirmed
Screen size: about 69,000 compounds; about 950 (1.4%) showed an effect of 50% or more. Only a selection was taken, and strong results are over-represented in it overall.
Output should be the measured figure followed by the unit it is expressed in.

Field Percent Effect (entry O=C(NCc1ccco1)[C@H]1CC[C@@H]2[C@@H](CCN2C2CCC2)O1.O=C(O)C(F)(F)F ) reads -4.585%

Kindly note the recorded Percent Effect for CNC(=O)C1(C)CN(Cc2cn(C)c3ccc(F)cc23)CCO1 (centres undefined) , which is 39.76%

Field Percent Effect (entry CC(C)(C)OC(=O)NCC1CCCCN1Cc1ccncc1 (centres undefined) ) reads 24.03%

So for CN(C)CCN1CC[C@@H]2O[C@@H](COCC(=O)N3CCCC3)CC[C@@H]21.O=C(O)C(F)(F)F.O=C(O)C(F)(F)F , the logged Percent Effect turned out to be -33.31%

Briefly, Percent Effect measured for CC(=O)Nc1nc(CN2CCCC2Cn2cncn2)cs1 (centres undefined) : -13%

Quick note, Percent Effect for COc1ccccc1OCCNCc1c(C)nn(C)c1N(C)C.Cl landed at 31.69%

Entry CC(=O)NCc1noc2c1CN(Cc1cccs1)CC2 , Percent Effect reported as 18.13%

Entry CCn1nc(CC(C)C)cc1C(=O)NCCCOC — recorded Percent Effect = 92.73%

For CC(C)Nc1nc(N2CCCC2)nc2c1CN(C)CC2 the compound record lists Percent Effect as 4.665%
